Kindly supply the reported self-aminoacylation values for the records listed here.
Tested on: biotinyl-Trp-oxazolone
Assay: self-aminoacylation, catalytic enhancement (BWO) (fold over background); higher = more active; k-Seq, kA / k0A0; sequences stand for … in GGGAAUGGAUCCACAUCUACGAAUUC…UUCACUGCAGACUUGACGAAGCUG
Variants at the floor of the assay were thinned out.
A bare number is all that is needed in reply.

Reported self-aminoacylation, sequence AUUCGCCUAGGUCAUCGGGCG [Fam2.2 aminoacylation ribozyme variant] : ____
4.35

Okay, and CUACUUAAAACACUCGGUCUG [Fam1A.1 aminoacylation ribozyme variant] ?
0.762

Okay, and CUACUACAAACAAUCGGGCUG [Fam1A.1 aminoacylation ribozyme variant] ?
0.83

---

Test system: biotinyl-Phe-oxazolone
Assay: self-aminoacylation, catalytic enhancement (BFO) (fold over background); higher = more active; k-Seq, kA / k0A0; sequences stand for … in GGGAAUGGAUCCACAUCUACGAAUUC…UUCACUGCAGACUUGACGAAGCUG
Fewer inactive variants are shown than the library holds.
Each record's class is read off its self-aminoacylation using these ranges: 1: < 1; 2: ≥ 1 and < 20; 3: ≥ 20

Any idea which band CUACUUCAAAGGAUCGGUCUG [Fam1A.1 aminoacylation ribozyme variant] is in?
1

Okay, and AUUCACCUAUGUCAUGGGGUG [Fam2.2 aminoacylation ribozyme variant] ?
2

Okay, and CGACUUCAAACAAUCAGUCUG [Fam1A.1 aminoacylation ribozyme variant] ?
3

Okay, and ACACACUUCAAGCACUCGGUC [Fam1B.1 aminoacylation ribozyme variant] ?
2

Okay, and AAGUUUGCUAAUAGUCGCGCG [Fam3.1 aminoacylation ribozyme variant] ?
3

Okay, and CUACUUCAAACGCUCGGUCUG [Fam1A.1 aminoacylation ribozyme variant] ?
1

Okay, and CUACUUCAAUCAAUCGGUUUG [Fam1A.1 aminoacylation ribozyme variant] ?
3

Okay, and CCAGACUUCAACCAAUCGGUC [Fam1B.1 aminoacylation ribozyme variant] ?
3

Okay, and AUUACCGUGGUCCUCGAGUGA [Fam2.1 aminoacylation ribozyme variant] ?
3

Okay, and AACUUUGCUGAUAGUCGCAAG [Fam3.1 aminoacylation ribozyme variant] ?
2

Okay, and CUACUUAAAACAAUCCGUCUG [Fam1A.1 aminoacylation ribozyme variant] ?
1

Okay, and AAGUUUACUAAAAGUCGCAAG [Fam3.1 aminoacylation ribozyme variant] ?
2

Okay, and AUGUUAGCUAAUAGUCGCAAG [Fam3.1 aminoacylation ribozyme variant] ?
2

Okay, and AAGUUUGCUAAUUGUCGCAAG [Fam3.1 aminoacylation ribozyme variant] ?
2

Okay, and CUUCUUCAAACAAUCGGUCUG [Fam1A.1 aminoacylation ribozyme variant] ?
3

Okay, and AUUCACUUAGGGCAUCGGGUG [Fam2.2 aminoacylation ribozyme variant] ?
3

Okay, and AUUCACCUAGGUCAUCGGUUA [Fam2.2 aminoacylation ribozyme variant] ?
2

---

System: biotinyl-Met-oxazolone
Assay: self-aminoacylation, catalytic enhancement (BMO) (fold over background); higher = more active; k-Seq, kA / k0A0; sequences stand for … in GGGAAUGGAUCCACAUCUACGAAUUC…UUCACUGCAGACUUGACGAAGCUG
Variants at the floor of the assay were thinned out.
Record Y whenever self-aminoacylation is at 1 or higher; record N when lower.

Can CCACAUUUGAAGCAAUCGGUC [Fam1B.1 aminoacylation ribozyme variant] be said to have self-aminoacylation at or above 1?
Y

Okay, and CAACUUCCAACAAUCGGUCUG [Fam1A.1 aminoacylation ribozyme variant] ?
Y

Okay, and AUUACCCUGGUCAACUAGUGA [Fam2.1 aminoacylation ribozyme variant] ?
Y

Okay, and CCACACUCUAAGCAAUCGGUC [Fam1B.1 aminoacylation ribozyme variant] ?
N

Okay, and CUUAUUCAAACAAUCGGUCUG [Fam1A.1 aminoacylation ribozyme variant] ?
N
